The reported numbers originate from patent US20140057807A1.

# key: entry, value: pKd
# MEASURED ON: T1, yeast small ubiquitin-like modifier protein (yeast, UniProt Q12306 3-98 = SUMO)
# T1 construct: GST fusion in most phage ELISAs, His-tagged or tag-cleaved elsewhere; also called ySUMO; yeast SUMO
# ASSAY REMARKS: SPR; column 'Estimated Kd (nM)'
The read-out pKd is expressed as -log10 of concentration in moles per litre.

ySMB-7 (designed binder, variable loops only; library YSGW) VSSVPTKLEVVAATPTSLLISWDASSSSVSYYRITYGETGGNSPVQEFTVPGSSSTATISGLSPGVDYTITVYAYQEWSYGWSSESPISINYRT
6.10
ySMB-2 (designed binder) VSSVPTKLEVVAATPTSLLISWDASSSSVSYYRITYGETGGNSPVQEFTVPGSSSTATISGLSPGVDYTITVYAYWTYEWGYMYDSPISINYRT
7.35
ySMB-17 (designed binder, variable loops only; library YSGW) VSSVPTKLEVVAATPTSLLISWDASSSSVSYYRITYGETGGNSPVQEFTVPGSSSTATISGLSPGVDYTITVYAYIQYYDLYYASPISINYRT
7.40

We now examine a further binder.
response.value for ySMB-4 (designed binder, variable loops only; library YSGW) VSSVPTKLEVVAATPTSLLISWDAPWAYSQSVAYYRITYGETGGNSPVQEFTVPGSSSTATISGLSPGVDYTITVYAYYGTPWGEGWYSWSPISINYRT (field: pKd) = 6.68
